This collection of values is drawn from ChEMBL document CHEMBL4138082.

Tested on: L02
Assay: Cytotoxicity against human L02 cells assessed as reduction in cell viability after 72 hrs by MTT assay
Format: cell-based
Conditions: L02, 72 h
Each record here notes measured IC50.
Supply the numeric figure in µM, leaving out any unit text.

Exercise: Which measured IC50 belongs to C[C@H]1CCC/C=C/[C@@H]2C[C@H](OC(=O)CCC(=O)OCCCOc3no[n+]([O-])c3S(=O)(=O)c3ccccc3)C[C@H]2[C@H](O)/C=C/C(=O)O1 , tested on L02?
Solution: 7.8

Exercise: API: value(readout=IC50, system=L02) for record C[C@H]1CCC/C=C/[C@@H]2C[C@H](O)C[C@H]2[C@H](OC(=O)CCCC(=O)OCCOc2no[n+]([O-])c2S(=O)(=O)c2ccccc2)/C=C/C(=O)O1
Solution: 5.1

Exercise: Param readout = IC50; param system = L02; param query = C[C@H]1CCC/C=C/[C@@H]2C[C@H](OC(=O)CCC(=O)OCCOc3no[n+]([O-])c3S(=O)(=O)c3ccccc3)C[C@H]2[C@H](OC(=O)CCC(=O)OCCOc2no[n+]([O-])c2S(=O)(=O)c2ccccc2)/C=C/C(=O)O1 ; response: value
Solution: 5.9

Exercise: So what IC50 did C[C@H]1CCC/C=C/[C@@H]2C[C@H](OC(=O)CCC(=O)OCCOc3no[n+]([O-])c3S(=O)(=O)c3ccccc3)C[C@H]2[C@H](O)/C=C/C(=O)O1 get with L02?
Solution: 5.2

Exercise: Requested read-out IC50, target or system L02, entry C[C@H]1CCC/C=C/[C@@H]2C[C@H](OC(=O)CCC(=O)O)C[C@H]2[C@H](O)/C=C/C(=O)O1
Solution: 9.5

Attention now shifts to the item below.
Exercise: GET /values?readout=IC50&system=L02&item= O=C(O)c1ccccc1C(=O)OCCOc1no[n+]([O-])c1S(=O)(=O)c1ccccc1
Solution: 37
